test system: Escherichia coli; assay: Minimum inhibitory concentration of compound against Escherichia coli delta 120; type: functional
testReadout: MIC (µg/mL)

Here's what some known entries look like.
[[record]]
smi = "Cc1ccc2c(c1)C=NN(S(=O)(=O)c1ccc(N)cc1Cl)B2O"
readoutunits = "µg/mL"
assayresult = 10

[[record]]
smi = "Cc1cc2c(s1)C=NN(S(=O)(=O)c1ccccc1C)B2O"
readoutunits = "µg/mL"
assayresult = 25

[[record]]
smi = "CC(=O)Nc1ccc(S(=O)(=O)N2N=Cc3sc(Br)cc3B2O)c(Cl)c1"
readoutunits = "µg/mL"
assayresult = 50


[P] CCCS(=O)(=O)N1N=Cc2sccc2B1O
[Q] Cc1ccc2c(c1)C=NN(S(C)(=O)=O)B2O
Q) Determine, for P and Q , which has the greater value of MIC. Pick one and reply with its label.
A) Q

====

tested on: Neisseria gonorrhoeae; assay: Minimum inhibitory concentration of compound against Neisseria gonorrhoeae AS 7720; format: functional
testReadout: MIC (µg/mL)

Examples with their reported MIC follow.
[[record]]
smi = "CC(=O)Nc1ccc(S(=O)(=O)N2N=Cc3cc(C)ccc3B2O)c(Cl)c1"
systemname = "Neisseria gonorrhoeae"
testreadout = "MIC"
readoutunits = "µg/mL"
assayresult = 0.5

[[record]]
smi = "CCc1cc2c(s1)B(O)N(S(=O)(=O)c1ccccc1Cl)N=C2"
systemname = "Neisseria gonorrhoeae"
testreadout = "MIC"
readoutunits = "µg/mL"
assayresult = 0.5

[[record]]
smi = "Cc1cc2c(s1)B(O)N(S(=O)(=O)CC(C)C)N=C2"
systemname = "Neisseria gonorrhoeae"
testreadout = "MIC"
readoutunits = "µg/mL"
assayresult = 1

[[record]]
smi = "Cc1ccc(S(=O)(=O)N2N=Cc3cc(C)ccc3B2O)cc1"
systemname = "Neisseria gonorrhoeae"
testreadout = "MIC"
readoutunits = "µg/mL"
assayresult = 1

[[record]]
smi = "CCc1cc2c(s1)C=NN(S(=O)(=O)c1ccccc1Cl)B2O"
systemname = "Neisseria gonorrhoeae"
testreadout = "MIC"
readoutunits = "µg/mL"
assayresult = 0.5


[1] Cc1ccc(S(=O)(=O)N2N=Cc3c(ccc4ccccc34)B2O)cc1
[2] Cc1ccc(S(=O)(=O)N2N=Cc3ccc(Cl)cc3B2O)cc1
Q) Could you tell me which of 1 and 2 has the lower MIC reading? Your choice should be expressed through its label.
A) 2

[I] CCc1cc2c(s1)B(O)N(S(=O)(=O)c1ccc(C)cc1)N=C2
[II] Cc1ccc(S(=O)(=O)N2N=Cc3oc(C)cc3B2O)cc1
Q) Sort I and II by MIC descending and give the first. The response must carry the label of the picked entry.
A) II

====

system: Escherichia coli; test: Minimum inhibitory concentration of compound against Escherichia coli delta 120; assay type: functional
testReadout: MIC (µg/mL)

[[record]]
smi = "Cc1ccc(S(=O)(=O)N2N=Cc3sc(Cl)cc3B2O)cc1"
testreadout = "MIC"
readoutunits = "µg/mL"
assayresult = 25


[I] Cc1ccc(S(=O)(=O)N2N=Cc3cc(F)ccc3B2O)cc1
[II] Cc1cc2c(s1)C=NN(S(=O)(=O)c1ccccc1Cl)B2O
Q) Would you kindly point out which of I and II has the smaller MIC figure? Return value: the label identifying the chosen record.
A) II
(II: 12.5 µg/mL, I: 25 µg/mL)

[P] O=S(=O)(c1ccccc1Cl)N1N=Cc2sc(Br)cc2B1O
[Q] Nc1ccc(S(=O)(=O)N2N=Cc3cc(Br)ccc3B2O)cc1
Q) Lowest MIC? choose P or Q Lab log: write the label of the selected item as the result.
A) Q

Values were extracted from ChEMBL document CHEMBL1122708.
